- Measurement notes: self-splicing fitness, log relative to wild type (ln ratio); higher = more splicing; Tetrahymena group I intron in knt gene, E. coli kanamycin selection, DiMSum; sequences stand for … in CUCUCU…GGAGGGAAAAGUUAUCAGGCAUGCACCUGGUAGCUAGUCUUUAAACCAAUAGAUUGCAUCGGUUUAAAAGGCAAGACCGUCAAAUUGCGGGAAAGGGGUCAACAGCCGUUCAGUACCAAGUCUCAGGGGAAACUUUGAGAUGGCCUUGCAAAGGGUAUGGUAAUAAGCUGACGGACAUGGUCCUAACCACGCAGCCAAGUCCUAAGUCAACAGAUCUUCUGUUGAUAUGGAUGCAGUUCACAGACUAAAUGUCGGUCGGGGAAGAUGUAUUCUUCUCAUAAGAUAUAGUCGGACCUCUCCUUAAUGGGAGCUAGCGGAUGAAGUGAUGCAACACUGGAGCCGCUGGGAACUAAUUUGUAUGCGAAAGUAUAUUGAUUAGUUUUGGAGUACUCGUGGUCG;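 also: selection with 25 µg/mL kanamycin versus none on LB agar overnight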
- Stated conditions: 37 °C
# self-splicing fitness (ln) values compiled below
I'd appreciate a reply containing only the number, no unit.

CGCCAGCAAUAUUACGCAGG: -2.56
GUCAAGCAAUAUUACGUUUG: -3.38
AUAUAGCAAUAUUACGCGGU: -2.28

Kindly review the next sequence as well.
Task: Give the reported value of self-splicing fitness (ln) for this record: GACUAGCAAUAUUACGCGGG
Output: -1.75

----------
- Measurement notes: self-splicing fitness, log relative to wild type (ln ratio); higher = more splicing; Tetrahymena group I intron in knt gene, E. coli kanamycin selection, DiMSum; sequences stand for … in CUCUCU…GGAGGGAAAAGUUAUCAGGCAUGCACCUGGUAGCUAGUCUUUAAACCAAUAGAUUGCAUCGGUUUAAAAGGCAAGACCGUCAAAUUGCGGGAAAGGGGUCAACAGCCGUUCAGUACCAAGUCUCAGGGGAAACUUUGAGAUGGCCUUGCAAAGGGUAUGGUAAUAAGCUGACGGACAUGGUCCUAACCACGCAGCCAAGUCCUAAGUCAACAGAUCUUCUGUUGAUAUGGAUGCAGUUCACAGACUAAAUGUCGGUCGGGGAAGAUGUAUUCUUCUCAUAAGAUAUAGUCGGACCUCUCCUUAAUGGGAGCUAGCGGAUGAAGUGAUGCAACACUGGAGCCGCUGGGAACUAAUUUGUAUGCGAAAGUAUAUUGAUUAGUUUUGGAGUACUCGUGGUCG
- Stated conditions: 37 °C
Criterion: self-splicing fitness (ln) meeting or surpassing -2. Met: true (1). Not met: false (0).

UUAGAGCAAUAUUACGACGA: true (1)

Task: Determine whether this sequence has self-splicing fitness (ln) no lower than -2: AUCUAGCAAUAUUACGAACG
Output: true (1)

Task: Determine whether this sequence has self-splicing fitness (ln) no lower than -2: UGUAAGCAAUAUUACGCGAA
Output: true (1)

Task: Determine whether this sequence has self-splicing fitness (ln) no lower than -2: GGCGAGCAAUAUUACGCAGG
Output: false (0)

Task: Determine whether this sequence has self-splicing fitness (ln) no lower than -2: UCCCAGCAAUAUUACGUGUU
Output: false (0)

Task: Determine whether this sequence has self-splicing fitness (ln) no lower than -2: GGUAAGCAAUAUUACGGUUC
Output: true (1)

Task: Determine whether this sequence has self-splicing fitness (ln) no lower than -2: UAAAAGCAAUAUUACGCGCC
Output: true (1)

Task: Determine whether this sequence has self-splicing fitness (ln) no lower than -2: CCGGAGCAAUAUUACGAUUU
Output: false (0)

Task: Determine whether this sequence has self-splicing fitness (ln) no lower than -2: CGGGAGCAAUAUUACGGUGU
Output: false (0)

Task: Determine whether this sequence has self-splicing fitness (ln) no lower than -2: UCAGAGCAAUAUUACGGGAA
Output: false (0)

Task: Determine whether this sequence has self-splicing fitness (ln) no lower than -2: GAAGAGCAAUAUUACGCAAG
Output: false (0)

Task: Determine whether this sequence has self-splicing fitness (ln) no lower than -2: UAUGAGCAAUAUUACGACCA
Output: false (0)

Task: Determine whether this sequence has self-splicing fitness (ln) no lower than -2: ACAGAGCAAUAUUACGUUAU
Output: false (0)

Task: Determine whether this sequence has self-splicing fitness (ln) no lower than -2: CCACAGCAAUAUUACGAACG
Output: true (1)

Task: Determine whether this sequence has self-splicing fitness (ln) no lower than -2: UGUCAGCAAUAUUACGCCAG
Output: true (1)

Task: Determine whether this sequence has self-splicing fitness (ln) no lower than -2: CUCUAGCAAUAUUACGUAGC
Output: false (0)

Task: Determine whether this sequence has self-splicing fitness (ln) no lower than -2: GCGCAGCAAUAUUACGCUGU
Output: false (0)

Task: Determine whether this sequence has self-splicing fitness (ln) no lower than -2: CACAAGCAAUAUUACGAGGC
Output: false (0)
